Hello, the source for this data is ChEMBL document CHEMBL4002542, in case you need it.

# target.of.assay: Alpha-galactosidase A (Homo sapiens)
# Sequence (P06280 whole entry): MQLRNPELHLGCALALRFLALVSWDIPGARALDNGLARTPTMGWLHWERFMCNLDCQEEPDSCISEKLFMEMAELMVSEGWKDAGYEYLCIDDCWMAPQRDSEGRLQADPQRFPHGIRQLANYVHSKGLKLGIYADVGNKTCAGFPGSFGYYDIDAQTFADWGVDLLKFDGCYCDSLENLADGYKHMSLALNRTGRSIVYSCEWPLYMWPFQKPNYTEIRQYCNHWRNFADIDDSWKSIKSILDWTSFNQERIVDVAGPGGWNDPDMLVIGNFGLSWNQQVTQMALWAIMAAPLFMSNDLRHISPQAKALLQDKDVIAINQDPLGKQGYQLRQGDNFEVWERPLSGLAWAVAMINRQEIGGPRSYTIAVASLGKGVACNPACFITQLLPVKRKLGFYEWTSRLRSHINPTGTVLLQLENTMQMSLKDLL
property.name: IC50 (µM)
Answers are plain numbers, in µM.

Bench note: what IC50 did O=C(CCCCC1CCCCC1)NC[C@H]1N[C@H](CO)[C@H](O)[C@@H]1O show?
10.4
